Reference for the values: patent US7301033B2

testTarget: human PPARγ2 (Homo sapiens, UniProt P37231)
Construct: with 182nd to 505th amino acids of human PPARγ2; expressed in transfected cells; host or cells: COS cells (African green monkey kidney)
Sequence (P37231 182-505): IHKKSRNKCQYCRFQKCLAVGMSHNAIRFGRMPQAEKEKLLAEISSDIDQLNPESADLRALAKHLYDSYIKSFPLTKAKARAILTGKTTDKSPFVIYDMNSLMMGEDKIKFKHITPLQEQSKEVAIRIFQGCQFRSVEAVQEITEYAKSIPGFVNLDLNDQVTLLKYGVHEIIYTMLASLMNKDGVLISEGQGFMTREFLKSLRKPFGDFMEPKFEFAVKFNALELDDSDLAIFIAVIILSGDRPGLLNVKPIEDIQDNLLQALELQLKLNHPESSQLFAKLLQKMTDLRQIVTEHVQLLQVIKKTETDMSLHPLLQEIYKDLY
assaySummary: Gal4-human PPARγ2 chimera luciferase transfection assay in COS cells
Format: cell-based
setupConditions: compound added at 1 μM, luciferase activity with rosiglitazone 1 μM given as 10.0, 16 hours
// assign 1.0 if hPPAR; Relative activity γ falls strictly below 2, else 0.0 (ties count as 0.0)

Solved cases below.
- givenSmiles: "CCCCCCCCN(CCCCSc1ccccc1C(=O)O)c1nc2ccccc2o1"
  testTarget: "human PPARγ2 (Homo sapiens, UniProt P37231)"
  discreteLabel: 0.0
- givenSmiles: "CCCCCCN(CCCCOc1ccc(C(=O)O)cc1)c1nc2ccccc2o1"
  testTarget: "human PPARγ2 (Homo sapiens, UniProt P37231)"
  discreteLabel: 1.0
- givenSmiles: "CN(CCCCSc1ccccc1C(=O)O)c1nc2ccccc2s1"
  testTarget: "human PPARγ2 (Homo sapiens, UniProt P37231)"
  discreteLabel: 1.0
- givenSmiles: "O=C(O)c1ccccc1SCCCCN(CCCc1ccccc1)c1nc2ccccc2o1"
  testTarget: "human PPARγ2 (Homo sapiens, UniProt P37231)"
  discreteLabel: 0.0
- givenSmiles: "CN(CCCCCSc1ccccc1C(=O)O)c1nc2ccccc2o1"
  testTarget: "human PPARγ2 (Homo sapiens, UniProt P37231)"
  discreteLabel: 1.0

I wonder whether `CCCCCCCCN(CCSc1ccccc1C(=O)O)c1nc2ccccc2o1` has hPPAR; Relative activity γ below 2. Can you tell? 0.0

Please check: hPPAR; Relative activity γ for `O=C(O)c1ccccc1OCCCCN(CCOc1ccccc1)c1nc2ccccc2o1` , strictly under 2 or not? 0.0

* * *

testTarget: human PPARα (Homo sapiens)
Construct: 166th to 467th amino acids of human PPARα; expressed in transfected cells; host or cells: COS cells (African green monkey kidney)
Sequence (Q07869 166-467): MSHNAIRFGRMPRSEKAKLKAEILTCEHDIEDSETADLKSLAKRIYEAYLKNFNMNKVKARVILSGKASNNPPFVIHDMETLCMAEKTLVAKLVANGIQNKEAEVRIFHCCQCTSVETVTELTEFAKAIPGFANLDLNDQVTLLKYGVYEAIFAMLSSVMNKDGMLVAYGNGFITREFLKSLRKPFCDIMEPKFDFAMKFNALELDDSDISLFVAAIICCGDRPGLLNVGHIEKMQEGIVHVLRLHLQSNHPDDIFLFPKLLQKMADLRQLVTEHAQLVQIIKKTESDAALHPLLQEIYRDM
assaySummary: Gal4-human PPARα chimera luciferase transfection assay in COS cells
Format: cell-based
setupConditions: compound added at 1 μM, luciferase activity with WY14643 10 μM given as 10.0, 16 hours
parameter: hPPAR; Relative activity α
One number for each entry.

Sample answers from the record:
- compound: "O=C(O)c1ccccc1SCCN(Cc1ccccc1[N+](=O)[O-])c1nc2ccccc2o1 [Example 74]"
  hPPAR; Relative activity α: 10.2
- compound: "O=C(O)c1ccccc1SCCCCN(CCOc1ccccc1)c1nc2ccccc2s1 [Example 111]"
  hPPAR; Relative activity α: 16.0
- compound: "CCCCCCCCN(CCCCOc1ccccc1C(=O)O)c1nc2ccccc2o1 [Example 50]"
  hPPAR; Relative activity α: 13.3
- compound: "CCCCCCCCN(CCOc1ccccc1C(=O)O)c1nc2ccccc2o1 [Example 13]"
  hPPAR; Relative activity α: 15.2
- compound: "O=C(O)c1ccccc1OCCCCN(CCCOc1ccccc1)c1nc2ccccc2o1 [Example 53]"
  hPPAR; Relative activity α: 16.0
- compound: "O=C(O)c1cccc(OCCCCN(CCCOc2ccccc2)c2nc3ccccc3o2)c1 [Example 48]"
  hPPAR; Relative activity α: 16.0

For each of the compounds below, state hPPAR; Relative activity α.
1. CCCCCCCCN(CCCCCS(=O)(=O)c1ccccc1C(=O)O)c1nc2ccccc2o1 [Example 122]
2. CCCCCN(CCCCCSc1ccccc1C(=O)O)c1nc2ccccc2o1 [Example 72]
3. O=C(O)c1ccccc1OCCCCN(CCOc1ccccc1)c1nc2ccccc2o1 [Example 52]

1. 12.2
2. 13.5
3. 13.8

* * *

testTarget: human PPARγ2 (Homo sapiens, UniProt P37231)
Construct: with 182nd to 505th amino acids of human PPARγ2; expressed in transfected cells; host or cells: COS cells (African green monkey kidney)
assaySummary: Gal4-human PPARγ2 chimera luciferase transfection assay in COS cells
Format: cell-based
setupConditions: compound added at 1 μM, luciferase activity with rosiglitazone 1 μM given as 10.0, 16 hours
Quick rule for you: hPPAR; Relative activity γ at 2 or higher means criterion met, lower means criterion not met.

- givenSmiles: "O=C(O)c1cccc(OCCCCN(CCOc2ccc(Cl)cc2)c2nc3ccccc3o2)c1"
  discreteLabel: "criterion met"
- givenSmiles: "CCCCCCCCN(CCCCCSc1ccccc1C(=O)O)c1nc2ccccc2o1"
  discreteLabel: "criterion met"
- givenSmiles: "CCCCCN(CCCCCSc1ccccc1C(=O)O)c1nc2ccccc2o1"
  discreteLabel: "criterion not met"

Textbook exercise: given the entry `O=C(O)c1ccccc1SCCN(CCCc1ccccc1)c1nc2ccccc2o1` , state whether its hPPAR; Relative activity γ is greater than or equal to 2. criterion not met

In plain terms: is recorded hPPAR; Relative activity γ at least 2 for `O=C(O)c1ccccc1SCCN(Cc1ccccc1[N+](=O)[O-])c1nc2ccccc2o1` ? criterion not met

Quick check, hPPAR; Relative activity γ >= 2? `CCCCCCN(CCCCSc1ccccc1C(=O)O)c1nc2ccccc2o1` criterion met
